The following binders are shown together with reported binding signal values.
# target: T1, UNK ZnF1-6 (called full-length) (human, UniProt Q9C0B0 30-357)
# T1 sequence: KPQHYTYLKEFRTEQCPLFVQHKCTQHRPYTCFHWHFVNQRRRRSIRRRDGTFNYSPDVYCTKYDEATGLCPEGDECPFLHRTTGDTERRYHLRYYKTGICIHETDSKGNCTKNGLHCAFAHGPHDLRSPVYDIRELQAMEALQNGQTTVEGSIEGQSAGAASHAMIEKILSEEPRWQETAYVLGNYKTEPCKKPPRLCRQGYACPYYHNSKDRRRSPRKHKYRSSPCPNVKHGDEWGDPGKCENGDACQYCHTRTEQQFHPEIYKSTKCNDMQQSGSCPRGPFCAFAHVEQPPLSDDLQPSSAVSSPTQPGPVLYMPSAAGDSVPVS
# procedure_text: nsRBNS (natural sequence RNA bind-n-seq); RBNS binding buffer (assumed for nsRBNS): 25 mM Tris pH 7.5, 150 mM KCl, 3 mM MgCl2, 0.01% Triton X-100, 500 ug/ml BSA, 20 U/ml SUPERase-In, 4 C; UNK is unkempt and MSI1 is Musashi-1; names of the RNAs are library labels; protein concentration not given here; high values mean tight binding
Whole data set: some 5,800 sequences, median “enrichment r” near 0.68, cut for the highest 2% near 11. The list comes from a sample in which the highest values are over-represented; it also holds close analogues and randomly drawn sequences.
Write the number in enrichment R without appending the unit.

>  <binder>
chr7:158734047:158734148:-|3pUTR|ENSG00000117868|msi1_unk|FALSE|overlapping (ssRNA) RNA: GGGAGUUCUACAGUCCGACGAUCCUACCCGGAACACACCCUCUCACAGACGUACCAAUGUUAUUUUUAUAAUUUCAUGGAUUUAGUUAUACAUACCUUAAUAGUUUUAUAAAAUUGUUGACAUUUCAGGCAAAUUUGGCCAAUCAACAGAGGAUUGAGCAUCA

>  <unit_tag>
enrichment R

>  <observed_result>
33.1

$$$$

Exercise: Which binding signal value belongs to chr12:107752058:107752159:-|CDS|ENSG00000110851|unk|FALSE|unique (ssRNA) RNA: GGGAGUUCUACAGUCCGACGAUCUAACUCUAUAAAUGUUGAUGGUAAUACAGCAUUAUCUAUCACCAAUAACCCUUCAGCACUAGAUCCCUAUCAGUCCAAUGGAAAUGUUGGAUUAGAACCAGGCAUUGUUUCAAUAGACUCCAACAGAGGAUUGAGCAUCA ?
Key: 0.391

Exercise: Try chr4:168927217:168927233:+|3pUTR|ENSG00000129116|msi1_unk|total|mutant (ssRNA) RNA: GGGAGUUCUACAGUCCGACGAUCAACCACCCAAAUGACCAAGGCAUAUACCGUAUUUGGAGGAAUCAGGGGUUUGGAAGGAGCCGGGAGGAGAAUGAAGGAAAAUGCAACCAGCAUGAUUACCGUGUGUUCAUUCCGAUAAAACAACAGAGGAUUGAGCAUCA next.
Key: 0.58
